target: T1, human GM-CSF (granulocyte macrophage-colony stimulating factor) (human, UniProt P04141 18-144); assay: ELISA on human GM-CSF
T1 construct: Soluble cytokine used in ELISA, SPR, TF-1 bioassay and immune complex formation; also called recombinant GM-CSF
T1 sequence (P04141 18-144 limits assumed): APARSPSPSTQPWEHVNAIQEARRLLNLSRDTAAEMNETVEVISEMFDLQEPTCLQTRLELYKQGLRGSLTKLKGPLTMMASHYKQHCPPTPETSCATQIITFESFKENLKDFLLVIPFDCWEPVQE
Endpoint Name: EC50 (µg/mL)

[
  {
    "Binder": "GCB59 (antibody, IgG1, V domains shown, also called GCB59 antibody) VH: EVQLVESGGDLVKAGGSLRLSCAVSGLSFSSSGMNWVRQAPGKGLEWISSISGSQNYKYYADSVKGRFVVSRDNARNFLYLQMDSLRAEDTAVYFCVGGFPYWLPPSDFSGFHVWGQGTTVTVSS VL: SYVLTQPPSVSVAPGQTASLTCGGTNIGSKSVHWYQQKAGQAPVLVVYADNDRPSGVPERFSGSNSGNTATLTISRVEAEDESDYFCQVWDGNTDHVVFGGGTKLTVLG",
    "Unit Info": "µg/mL",
    "Value Measured": 0.308
  },
  {
    "Binder": "Namilumab (antibody, V domains shown) VH: QVQLVQSGAEVKKPGASVKVSCKAFGYPFTDYLLHWVRQAPGQGLEWVGWLNPYSGDTNYAQKFQGRVTMTRDTSISTAYMELSRLRSDDTAVYYCTRTTLISVYFDYWGQGTMVTVSS VL: DIQMTQSPSSVSASVGDRVTIACRASQNIRNILNWYQQRPGKAPQLLIYAASNLQSGVPSRFSGSGSGTDFTLTINSLQPEDFATYYCQQSYSMPRTFGGGTKLEIK",
    "Unit Info": "µg/mL",
    "Value Measured": 0.0753
  },
  {
    "Binder": "GCA21 (antibody, IgG1, V domains shown, also called GCA21 antibody) VH: QVQLMESGGGVVQPGRSLRLSCSAFGFTFSNYPMHWVRQAPGKGLEWVAIILPDGNRKNYGRSVTGRFTISRDNSNNSLYLQMNNLTTEDTAMYYCTRDGTYYSNGGVYQTYRRFFDFWGRGTLVTVSS VL: DIQMTQSPSTLSTSVGDRVTITCRASQNILNWLAWYQQKPGNAPNLLIYKASDLQSGVPSRFSGSGSGTEFTLTISSLQPDDFATYYCQHYNSYPLTFGGGTKVEIKR",
    "Unit Info": "µg/mL",
    "Value Measured": 0.0594
  },
  {
    "Binder": "GCE536 (antibody, human IgG1, kappa, V domains shown, also called GCE536 antibody) VH: QLQLVQSGTEVKKPGASVKVSCKSSGYVFTSYYLVWVRQAPGQGLEWMATISPGDVNTSYEQRFQGRVTVTTDASTNTVDMELRSLRSEDTAVYYCARGPRSKPPYLYFALDVWGQGTAVTVSS VL: EIVLTQSPGTLSLSPGETAILSCRASQSVSSSLLAWYQQKPGQAPRLLIYGASNRATGIRGRFSGSGSGTDFTLTISRLEPEDFVLYYCQHYGSRVTFGQGTKLEIKR",
    "Unit Info": "µg/mL",
    "Value Measured": 0.0614
  }
]
